Provide the reported normalized growth of each item.
experiment: chemical genetic growth profiling, strain panel (AID 1159580);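 note: tested at 20 µM; growth read once vehicle control cultures reached saturation at 30 °C; 1 = growth at the plate median or of vehicle wells; lower values mean less growth of the strain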; settings: S. cerevisiae deletion strains, growth OD, locus YOR001W, strain rrp6, stronger effect = lower value
The campaign covered roughly 5,500 compounds. About 2,000 (36%) were called active. About 18% were inconclusive and are not listed. The list shows a part of the results.
Numbers only.

Example entries begin here.
CCN1C[C@@]2(COC)C3[C@@H](OC)[C@H]4[C@@H]1[C@]3(C(OC)C[C@H]2O)C1C[C@@]2(O)[C@H](OC(=O)c3ccccc3)C1[C@]4(OC(C)=O)[C@@H](O)[C@@H]2OC (stereo not given in full) | 1
CCCNC(=O)NS(=O)(=O)c1ccc(Cl)cc1 | 1.02

Please state normalized growth for every compound in the list that follows.
1. NCCCCCC(=O)O
2. CC(C)/C(O)=C1/C(=O)O[C@@H](c2ccoc2)[C@]2(C)C(O)[C@@H](O)[C@@]34OC5(C)OC67CC(C)(C(O)[C@]6(O)[C@@H](O)[C@]3(O5)C12)[C@H](CC(=O)O)[C@]74C (stereo not given in full)
3. O=C(O)C1CCCNC1 (stereo not given)
4. NCCCCC(=O)O

*A*
[1.01, 1.04, 1.02, 1.03]

Please state normalized growth for every compound in the list that follows.
1. O=C(O)CCCCCCCC(=O)O
2. NCCCNCCSP(=O)(O)O
3. CN(C)CCC(c1ccccc1)c1ccccn1 (stereo not given)
4. C=C1C(=O)[C@]23[C@H](O)[C@H]1CC[C@H]2[C@@]12CO[C@]3(O)[C@H](O)[C@@H]1C(C)(C)CC[C@@H]2O

*A*
[1, 1.02, 0.988, 0.964]

meta.source: PubChem BioAssay AID1159580
